# Tested on: human ovarian cancer (SKOV3) cells
# ASSAY OVERVIEW: MTT tumor cell growth inhibition, human ovarian cancer (SKOV3)
# Format: cell-based
# CONDITION: Homo sapiens, SK-OV-3; SKOV3, 48 h culture, MTT method; read-out: IC50 value of target compound against cancer cell proliferation, SKOV3
Lab note: compare IC50 with 30 µM, writing MET if less and NOT MET if equal or more.

# COMPOUND, ASSAYED TARGET, ASSIGNED CATEGORY
data = [
    ("COc1cc(CN(C)CC(O)COc2ccc(Br)cc2)ccc1OCCN1CCC(C)CC1 (centres unmarked)", "human ovarian cancer (SKOV3) cells", "MET"),
    ("COc1cc(CN(C)CC(O)COc2cccc(NC(C)=O)c2)ccc1OCCN1CCC(C)CC1 (centres unmarked)", "human ovarian cancer (SKOV3) cells", "NOT MET"),
    ("COc1cc(CN(C)CC(O)COc2ccccc2C(C)C)ccc1OCCN1CCC(C)CC1 (centres unmarked)", "human ovarian cancer (SKOV3) cells", "MET"),
    ("COc1cc(CN(C)CC(O)COc2cc(C(F)(F)F)ccc2Br)ccc1OCCN1CCCC1 (centres unmarked)", "human ovarian cancer (SKOV3) cells", "MET"),
    ("COc1cc(CN(C)CC(O)COc2ccc(Br)c(C(F)(F)F)c2)ccc1OCCN1CCC(C)CC1 (centres unmarked)", "human ovarian cancer (SKOV3) cells", "MET"),
    ("COc1cc(CN(C)CC(O)COc2cccc(C(C)C)c2)ccc1OCCN1CCC(C)CC1 (centres unmarked)", "human ovarian cancer (SKOV3) cells", "MET"),
    ("CCN(CC)CCOc1ccc(CN(C)CC(O)COc2ccc(F)c(Br)c2)cc1OC (centres unmarked)", "human ovarian cancer (SKOV3) cells", "NOT MET"),
    ("COc1cc(CN(C)CC(O)COc2ccccc2Cl)ccc1OCCN1CCC(C)CC1 (centres unmarked)", "human ovarian cancer (SKOV3) cells", "NOT MET"),
]
